- Test System: PDZ protein (GST-PDZ fusion) (Homo sapiens, UniProt Q12959)
- Construct: made in house; host or cells: E. coli (DH5alpha, BL21 or JM109)
- Sequence (Q12959 whole entry, the tested form may be a part): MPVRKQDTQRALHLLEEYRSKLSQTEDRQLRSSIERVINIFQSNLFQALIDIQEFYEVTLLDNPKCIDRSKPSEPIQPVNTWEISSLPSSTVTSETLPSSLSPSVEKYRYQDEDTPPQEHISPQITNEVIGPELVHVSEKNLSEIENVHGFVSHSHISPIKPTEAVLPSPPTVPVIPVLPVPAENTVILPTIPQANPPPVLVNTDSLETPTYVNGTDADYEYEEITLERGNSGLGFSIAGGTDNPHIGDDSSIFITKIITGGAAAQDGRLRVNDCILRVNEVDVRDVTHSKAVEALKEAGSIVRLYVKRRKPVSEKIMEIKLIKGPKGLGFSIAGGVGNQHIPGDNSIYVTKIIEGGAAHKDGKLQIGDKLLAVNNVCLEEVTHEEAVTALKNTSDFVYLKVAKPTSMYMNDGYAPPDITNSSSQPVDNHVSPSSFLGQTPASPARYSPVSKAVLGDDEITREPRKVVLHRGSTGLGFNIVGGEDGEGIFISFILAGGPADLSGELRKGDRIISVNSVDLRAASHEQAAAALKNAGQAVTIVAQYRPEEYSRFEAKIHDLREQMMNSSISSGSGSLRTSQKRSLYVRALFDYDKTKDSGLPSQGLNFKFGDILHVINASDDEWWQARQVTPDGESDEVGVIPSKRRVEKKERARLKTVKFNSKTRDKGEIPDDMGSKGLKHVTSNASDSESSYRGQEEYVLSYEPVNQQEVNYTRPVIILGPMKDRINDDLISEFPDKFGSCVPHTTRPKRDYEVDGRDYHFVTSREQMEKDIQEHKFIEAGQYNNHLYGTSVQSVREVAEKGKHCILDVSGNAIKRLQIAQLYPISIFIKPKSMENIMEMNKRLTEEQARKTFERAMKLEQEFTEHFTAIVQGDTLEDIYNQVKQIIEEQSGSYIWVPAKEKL
- Assay Procedure: G' assay (10 uM PL peptide), results of TABLE 7 and TABLE 12
- Assay type: binding
- Run Conditions: PDZ DLG1, PDZ Domain 2
Ends that are not written are not given here. * marks the point of attachment. Biotin = O=C1N[C@H]2[C@H](CS[C@H]2CCCCC(=O)*)N1
Endpoint Label: Classification

Query block: I would be grateful if you could share the reported Classification for VDPNSPAAKKKYVSYNNLVI [GLUR7 (metabotropic glutamate receptor)] .
Result block: 1 (A450 nm 0-1)

Query block: I would be grateful if you could share the reported Classification for `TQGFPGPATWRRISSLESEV` .
Result block: 5 (A450 nm of 4 more than 2× repeated)

Query block: I would be grateful if you could share the reported Classification for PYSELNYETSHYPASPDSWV (Biotin-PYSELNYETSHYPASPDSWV) [catenin - delta 2] .
Result block: 2 (A450 nm 1-2)

Query block: I would be grateful if you could share the reported Classification for GGGGGSGGGGGSGIESVKI [GLUR2 (glutamate receptor 2-modified)] .
Result block: 1 (A450 nm 0-1)

Query block: I would be grateful if you could share the reported Classification for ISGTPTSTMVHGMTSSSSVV (Biotin-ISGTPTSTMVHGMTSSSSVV) [Clasp-2] .
Result block: 1 (A450 nm 0-1)
